Value source: ChEMBL document CHEMBL1201862

- System: KM12
- experiment: NCI tumour cell line growth inhibition, 48 h
Activity calls are given as the source filed them. No stated cut-off is given here; in the data, active = GI50 up to about 1.1 µM and inactive = higher.
Outcomes: Y (active), N (inactive)

molecule	class.name
NS(=O)(=O)c1ccc(NC(=O)Nc2cccc3ccccc23)cc1	N
Cc1ccc(S(=O)(=O)NC(=O)NC(CC(=O)O)C(=O)O)cc1 (configuration not stated)	N
Cc1cc(N(CCC#N)CCC#N)ccc1/C=C1/N=C(c2ccccc2)N(N)C1=O	N
CCN(CC)C(=S)SC(=S)N(CC)CC	N
O=C(O)CCCc1ccccc1 [SODIUM PHENYLBUTYRATE]	N
O=C1CCCN(c2ccccc2)N1	N
CN(Cc1ccccc1)/C(=N\C#N)N(Cc1ccccc1)Cc1ccccc1	N
O=C1CCCCCCCCCCC1CN1CCOCC1 (configuration not stated)	N
Cc1cc([N+](=O)[O-])c(C)c2c1[nH]c1ccc(Cl)cc12	N
O=C(O)c1ccc2nc(-c3ccccn3)c(-c3ccccn3)nc2c1	N
Nc1nc2c(ncn2Cc2ccccc2CO)c(=O)[nH]1	N
CC(/C=C/C=C/C=C/C=C/C=C/C(=O)C1=C(O)C(CCC(=O)O)N(C)C1=O)=C\C(C)C(OC1CC(O)C(O)C(C)O1)C(C)C (configuration not stated)	N
S=C(/C=C1\SC(=N\c2ccccc2)/C(=N/c2ccccc2)N1c1ccccc1)Nc1ccccc1	N
FC(F)(F)c1nc2nc(Cl)c(Cl)nc2n1CCCN1CCOCC1	N
COc1cc(OC)c(C/C=C/c2ccccc2)cc1O	N
COC(=O)C1=CC(=O)C(C(=O)Nc2ccc(OC)cc2)C(c2ccccc2)O1 (configuration not stated)	N
C=CCCC(CCC=C)(C(=O)O)C(=O)O	N
O=C1C=C(C2=CC(=O)C(=O)c3ccccc32)c2ccccc2C1=O	N
Clc1ccc(COC(Cn2ccnc2)c2ccc(Cl)cc2Cl)c(Cl)c1 (configuration not stated)	N
CC(=O)O[C@H]1CCC(C)=CCC[C@@]2(C)C(CC[C@@H]2[C@@H](C)/C=C/C(C)C)c2ccc(cc2C(=O)O)C1 (some centres not stated)	N
COC1C(O)C(O[C@H]2CC[C@@]3(C)C(CC[C@@H]4[C@@H]3CC[C@]3(C)[C@@H](C(C)OC5OC(CO)C(O)C(O)C5O)CC[C@]43O)C2)OC(C)C1OC1OC(CO)C(O)C(O)C1O (some centres not stated)	N
CN(C)CCCN1c2ccccc2Sc2cnccc21	N
COc1ccc(-c2cc(-c3ccc(Nc4ccnc5cc(C(F)(F)F)ccc45)cc3)[nH]c(=O)c2C#N)cc1	N
C=C1C(=O)O[C@@H]2CC(CO)=C([C@@H](C)CCCO)[C@@H](OC(=O)/C(C)=C\C)[C@H]12	N
Nc1ccn(C2CCC(CO)O2)c(=S)n1 (configuration not stated)	N
CC[C@]1(Cc2ccc(OC)c(OC)c2)C=[N+]([O-])O[C@H](OC2CCCC2(c2ccccc2)c2ccccc2)[C@@H]1OC(=O)c1ccccc1 (some centres not stated)	N
Cc1cn([C@H]2C[C@](C)(CO)N(C)O2)c(=O)[nH]c1=O	N
O=C(NCc1cccnc1)NCc1cccnc1	N
C=C[C@@]1(O)CCCC2=C(C(=O)OCC)CC[C@]21C	N
CCOC(=O)c1sc(Nc2cc(Cl)ccc2Cl)nc1C	N
COc1cccc2c3cccc(OC)c3c3[nH]cnc3c12	N
CC(=O)c1ccc2c(c1)CC1(C2)Cc2cc3c(cc2C1)C(=O)CC3 (configuration not stated)	Y
COc1cc2c[n+](C)c3c4cc(OC)c(OC)cc4c(OCCCCCCCCOc4cc5c6cc(OC)c(OC)cc6c[n+](C)c5c5cc(OC)c(OC)cc45)cc3c2cc1OC	N
O=C1CSC2(CC(/C=C/c3cccs3)=NN2c2cccc(S(=O)(=O)O)c2)N1c1nc2ccccc2s1 (configuration not stated)	N
Nc1c(-c2ccc(Cl)cc2)[n+]([O-])c2ccccc2[n+]1[O-]	N
Cc1cc(C)nc(NS(=O)(=O)c2ccc(NC(=O)c3cccc4c(=O)c5ccccc5[nH]c34)cc2)n1	N
CC[N+](CC)(CC)Cc1cn(S(=O)(=O)c2ccccc2)c2ccccc12	N
